Reference for the values: paper PMC10090446

- method.notes: Steady-state plasma concentrations of polymyxin B (total of B1, B2, B1-Ile) by LC-MS/MS
- Format: in vivo
- recorded.conditions: human, iv, patient ID 5, TIME 167.9, DOSE 100 at 0 then 50 from 12, ADDL 15, II 12, DUR 1, WT 60, CCR 41.15, ALB 36.1, APACHE 21, single sample, read-out: OUT (observed polymyxin B plasma concentration)
Positions of bridges follow the written chain, without caps; N, C: chain ends. Non-standard residues stand in square brackets, D forms with d. Residues, ends and D or L forms follow the SMILES beside them. *: point of attachment. X1 = CC[C@H](C)CCCCC(=O)*; Dab = NCC[C@H](N)C(=O)O
parameter: level at 167.9 h (ng/mL)

[[record]]
molecule = "CC[C@H](C)CCCCC(=O)N[C@@H](CCN)C(=O)N[C@H](C(=O)N[C@@H](CCN)C(=O)N[C@H]1CCNC(=O)[C@H]([C@@H](C)O)NC(=O)[C@H](CCN)NC(=O)[C@H](CCN)NC(=O)[C@H](CC(C)C)NC(=O)[C@@H](Cc2ccccc2)NC(=O)[C@H](CCN)NC1=O)[C@@H](C)O [polymyxin B] (X1-[Dab]T[Dab][Dab][Dab][dF]L[Dab][Dab]T; lactam 4-C)"
unit_string = "ng/mL"
reading = 2900

